Would you kindly list logp for each of these compounds?
# assay_text: log P by HPLC on reversed phase columns (EEC directive 79/831 Annex V.A8)
# Assay type: physicochemical
# condition_notes: pH 2.7, 0.1% formic acid in water / acetonitrile gradient
One number for each entry.

Known results for compounds:
Cc1nnnn1C(=NOCc1cccc(NC(=O)C2CC(=O)c3cc(F)ccc3O2)n1)c1ccccc1 (stereo not shown): 3.53
Cn1nnnc1C(=NOCc1csc(NC(=O)C2COc3ccccc3O2)n1)c1ccccc1 (stereo not shown) [Example 11]: 3.46
Cc1cccc2c1OC(C(=O)Nc1cccc(CON=C(c3ccccc3)n3nnnc3C)n1)CO2 (stereo not shown): 4.15

For record Cc1nnnn1C(=NOCc1csc(NC(=O)C2COc3ccccc3O2)n1)c1ccccc1 (stereo not shown) the listed logp is 3.51

* * *

# assay_text: log P by HPLC on reversed phase columns (EEC directive 79/831 Annex V.A8)
# Type: physicochemical
# condition_notes: reversed phase HPLC column, pH 2.7, formic acid eluent, reported in preparation example, read-out: log P(HCOOH)
reported_endpoint: chromatographic logP

Cn1nnnc1C(=NOCc1cccc(NC(=O)C2Cc3ccccc3O2)n1)c1ccccc1 (centres unmarked): 3.67

Moving on to another compound below.
For record Cn1nnnc1C(=NOCc1csc(NC(=O)C2CCc3ccccc3O2)n1)c1ccccc1 (centres unmarked) the listed chromatographic logP is 3.78

* * *

Would you kindly list logp for each of these compounds?
# assay_text: log P by HPLC on reversed phase columns (EEC directive 79/831 Annex V.A8)
# Type: physicochemical
# condition_notes: pH 2.7, 0.1% formic acid in water / acetonitrile gradient
Answers are plain numbers.

Cc1nnnn1C(=NOCc1cccc(NC(=O)C2COc3ccccc3O2)n1)c1ccccc1 (stereo not shown): 3.78
Cn1nnnc1C(=NOCc1csc(NC(=O)C2COc3ccc(C(C)(C)C)cc3O2)n1)c1ccccc1 (stereo not shown): 4.62
Cn1nnnc1C(=NOCc1cccc(NC(=O)C2CCc3cc(F)ccc3O2)n1)c1ccccc1 (stereo not shown): 4.01

Moving on to another compound below.
For record `Cc1nnnn1C(=NOCc1cccc(NC(=O)C2Oc3ccccc3O2)n1)c1ccccc1` the listed logp is 3.48

* * *

# assay_text: log P by HPLC on reversed phase columns (EEC directive 79/831 Annex V.A8)
# Assay type: physicochemical
# condition_notes: pH 2.7, 0.1% formic acid in water / acetonitrile gradient
Would you kindly list logp for each of these molecules?
Numbers only.

Known results for molecules:
Cn1nnnc1C(=NOCc1cccc(NC(=O)c2cc(=O)c3ccccc3o2)n1)c1ccccc1 [Example 59]: 3.27
Cc1nnnn1C(=NOCc1csc(NC(=O)c2cc(=O)c3ccccc3o2)n1)c1ccccc1 [Example 44]: 3.21

Batch lookup, logp per entry.
1. Cc1nnnn1C(=NOCc1csc(NC(=O)C2CCc3ccccc3O2)n1)c1ccccc1 (stereo not shown) [Example 32]
2. Cc1nnnn1C(=NOCc1cccc(NC(=O)C2CCc3cc(F)ccc3O2)n1)c1ccccc1 (stereo not shown) [Example 23]

*A*
[3.83, 4.11]

* * *

# assay_text: log P by HPLC on reversed phase columns (EEC directive 79/831 Annex V.A8)
# Format: physicochemical
# condition_notes: pH 2.7, 0.1% formic acid in water / acetonitrile gradient
Would you kindly list logp for each of these molecules?
One number for each entry.

Known results for molecules:
Cn1nnnc1C(=NOCc1cccc(NC(=O)C2CCc3ccccc3O2)n1)c1ccccc1 (centres unmarked): 4.01
Cc1cccc2c1OC(C(=O)Nc1nc(CON=C(c3ccccc3)n3nnnc3C)cs1)CO2 (centres unmarked): 3.87
Cn1nnnc1C(=NOCc1cccc(NC(=O)C2CC(=O)c3cc(F)ccc3O2)n1)c1ccccc1 (centres unmarked): 3.46
Cc1ccc2c(c1)OC(C(=O)Nc1nc(CON=C(c3ccccc3)n3nnnc3C)cs1)CO2 (centres unmarked): 3.83
Cc1cccc2c1OC(C(=O)Nc1cccc(CON=C(c3ccccc3)c3nnnn3C)n1)CO2 (centres unmarked): 4.08
Cn1nnnc1C(=NOCc1csc(NC(=O)C2Oc3ccccc3O2)n1)c1ccccc1: 3.29
Cn1nnnc1C(=NOCc1csc(NC(=O)C2CCc3ccccc3O2)n1)c1ccccc1 (centres unmarked): 3.78

For record `Cc1nnnn1C(=NOCc1csc(NC(=O)C2Oc3ccccc3O2)n1)c1ccccc1` the listed logp is 3.31
